Origin of the recorded values: ChEMBL document CHEMBL3886234

Biological target: Phospholipase D1 (Homo sapiens)
Sequence (Q13393 whole entry): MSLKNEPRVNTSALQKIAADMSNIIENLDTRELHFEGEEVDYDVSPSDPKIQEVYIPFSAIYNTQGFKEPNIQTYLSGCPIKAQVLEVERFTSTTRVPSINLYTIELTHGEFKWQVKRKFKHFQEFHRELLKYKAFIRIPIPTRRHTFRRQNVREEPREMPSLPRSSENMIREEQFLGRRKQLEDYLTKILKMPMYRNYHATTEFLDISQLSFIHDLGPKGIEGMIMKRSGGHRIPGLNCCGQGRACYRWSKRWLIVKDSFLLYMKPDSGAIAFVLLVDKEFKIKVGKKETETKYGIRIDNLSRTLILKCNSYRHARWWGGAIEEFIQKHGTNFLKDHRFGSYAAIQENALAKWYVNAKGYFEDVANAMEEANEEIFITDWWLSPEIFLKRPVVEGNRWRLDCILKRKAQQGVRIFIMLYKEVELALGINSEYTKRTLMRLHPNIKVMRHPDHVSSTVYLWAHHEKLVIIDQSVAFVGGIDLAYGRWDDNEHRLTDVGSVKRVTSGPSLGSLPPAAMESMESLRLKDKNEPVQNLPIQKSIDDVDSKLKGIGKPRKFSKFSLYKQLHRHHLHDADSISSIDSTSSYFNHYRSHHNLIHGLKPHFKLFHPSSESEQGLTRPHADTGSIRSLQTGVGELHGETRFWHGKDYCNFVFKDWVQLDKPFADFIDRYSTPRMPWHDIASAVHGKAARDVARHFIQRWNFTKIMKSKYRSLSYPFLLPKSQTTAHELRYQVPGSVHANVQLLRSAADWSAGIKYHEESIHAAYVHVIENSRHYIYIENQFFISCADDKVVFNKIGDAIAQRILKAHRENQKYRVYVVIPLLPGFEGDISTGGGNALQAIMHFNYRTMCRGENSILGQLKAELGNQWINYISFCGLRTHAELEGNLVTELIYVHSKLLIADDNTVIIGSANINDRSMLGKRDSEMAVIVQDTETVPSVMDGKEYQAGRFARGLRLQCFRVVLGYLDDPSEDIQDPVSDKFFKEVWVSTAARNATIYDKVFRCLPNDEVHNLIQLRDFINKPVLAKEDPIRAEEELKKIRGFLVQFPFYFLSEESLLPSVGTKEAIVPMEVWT
Test: Inhibition Assay: In one aspect, the compound inhibits PLD activity; that is, a compound can inhibit PLD1 activity and/or PLD2 activity. In a further aspect, the compound inhibits PLD1 response in Calu-1 cells. In a further aspect, the compound inhibits PLD2 response in HEK293gfpPLD2 cells. In a further aspect, the compound inhibits in vitro PLD1 response. In a further aspect, the compound …
Property Measured: IC50 (nM)
# unit: nM | format: bare number

**Q:** // query IC50 value for entry C[C@@H](CN1CCC2(CC1)C(=O)NC[C@@H]2c1ccc(F)cc1)NC(=O)c1ccc(F)cc1
**A:** 1200
